Tested on: RARb homodimer (NR concentration 270 nM)
Assay: PBM binding z-score (relative to random genomic background probes); higher = stronger binding; sequences stand for … in GC…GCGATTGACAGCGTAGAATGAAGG
Returns yes if the recorded PBM binding z-score is greater than or equal to 3, and no otherwise.

# bool: PBM binding z-score of "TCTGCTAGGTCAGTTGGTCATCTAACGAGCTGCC" >= 3
no

Repeat for the following sequence: "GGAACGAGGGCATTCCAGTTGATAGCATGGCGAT"
no

What do you get for "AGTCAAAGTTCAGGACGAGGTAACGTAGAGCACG" ?
yes

Continue with "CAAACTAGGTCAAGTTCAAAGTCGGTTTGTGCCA"
yes

Also check "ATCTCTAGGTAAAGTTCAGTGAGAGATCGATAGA"
no

Queued: "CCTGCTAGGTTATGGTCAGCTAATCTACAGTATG"
no
